measurement-conditions: pH 2.7
Marks after values point to notes of the source that are not given here.
parameter: Log P

Exercise: Form field: reported Log P of CCOC(=O)C(C#N)=C(NC(C)CC)c1cnccc1C(F)(F)F (racemic) [Compound 843]
Solution: 3.17^[a]

Exercise: Form field: reported Log P of CCOC(=O)C(C#N)=C(NC(C)(C)C#Cc1ccc(C#N)cc1)c1sccc1C(F)(F)F [Compound 1091]
Solution: 4.24^[a]

Exercise: Form field: reported Log P of CCOC(=O)C(C#N)=C(NC(C)c1nccs1)c1sc(C)nc1C(F)(F)F (racemic) [Compound 142]
Solution: 3.13^[a]

Exercise: Form field: reported Log P of CCCCCC(C)N/C(=C(/C#N)C(=O)OCC)c1ccsc1Br (stereo not shown) [Compound 862]
Solution: 4.99^[a]

Exercise: Form field: reported Log P of COC(=O)C(C#N)=C(NC1CCCCNC1=O)c1cccnc1Cl (stereo not shown) [Compound 123]
Solution: 1.57^[a]

Exercise: Form field: reported Log P of CCNC(=O)C(C#N)=C(NC(C)C(C)C)c1ccnc(Cl)c1Br (stereo not shown) [Compound 1408]
Solution: 3.53^[a]

Exercise: Form field: reported Log P of CCOC(=O)C(C#N)=C(Nc1cccc(SC)c1)c1cccnc1Cl [Compound 1266]
Solution: 3.42^[a]

Exercise: Form field: reported Log P of CCOC(=O)C(C#N)=C(NC(C)CC)c1cc(C)oc1C (stereo not shown) [Compound 825]
Solution: 3.63^[a]

Exercise: Form field: reported Log P of CCOC(=O)C(C#N)=C(NC(C)c1nc(C)cs1)c1sccc1C(F)(F)F (racemic) [Compound 174]
Solution: 3.58^[a]

Exercise: Form field: reported Log P of COC(=O)C(C#N)=C(NC(C)c1nc(C)c(C)s1)c1cn(C)nc1C(F)F (racemic) [Compound 47]
Solution: 2.65^[a]

Exercise: Form field: reported Log P of CCOC(=O)C(C#N)=C(NCc1ccccn1)c1nsc(Cl)c1Cl [Compound 70]
Solution: 2.84^[a]

Exercise: Form field: reported Log P of CCOC(=O)C(C#N)=C(NC(C)c1nc2c(s1)CCCC2)c1cccnc1Cl (racemic) [Compound 1548]
Solution: 3.21^[a]

Exercise: Form field: reported Log P of CCOC(=O)C(C#N)=C(NCc1nccs1)c1c(C)nn(C)c1F [Compound 80]
Solution: 2.01^[a]

Exercise: Form field: reported Log P of CCOC(=O)C(C#N)=C(NC(C)C(C)C)c1cn(C)nc1C(F)F (stereo not shown) [Compound 1003]
Solution: 3.15^[a]

Exercise: Form field: reported Log P of CCOC(=O)C(C#N)=C(Nc1cccc(Cl)c1)c1sccc1C(F)(F)F [Compound 511]
Solution: 4.14

Exercise: Form field: reported Log P of CCOC(=O)C(C#N)=C(NC(C)c1ccccn1)c1cccnc1C(F)F (racemic) [Compound 264]
Solution: 2.46^[a]

Exercise: Form field: reported Log P of CCOC(=O)C(C#N)=C(NC(C)CC)c1ncc(Cl)cc1Cl (racemic) [Compound 839]
Solution: 3.78^[a]

Exercise: Form field: reported Log P of CCNC(=O)C(C#N)=C(NC(C)c1ccncn1)c1cccnc1Cl (stereo not shown) [Compound 1118]
Solution: 1.62^[a]

Exercise: Form field: reported Log P of CCOC(=O)C(C#N)=C(NCc1nccs1)c1nc(Cl)ccc1Cl [Compound 226]
Solution: 2.6^[a]

Exercise: Form field: reported Log P of CCOC(=O)C(C#N)=C(NC(C)c1sc(C)nc1C)c1ccsc1Br (racemic) [Compound 261]
Solution: 2.9^[a]

Exercise: Form field: reported Log P of CCOC(=O)C(C#N)=C(NC(C)C(C)C)c1cn(C)nc1C (stereo not shown) [Compound 1203]
Solution: 2.8^[a]

Exercise: Form field: reported Log P of CCOC(=O)C(C#N)=C(NC(C)c1ccc(Cl)cc1)c1ccncc1Cl (racemic) [Compound 541]
Solution: 3.78^[a]

Exercise: Form field: reported Log P of CCOC(=O)C(C#N)=C(NC(C)C1CC1)c1cnc(Cl)cc1Cl (stereo not shown) [Compound 890]
Solution: 3.64^[a]

Exercise: Form field: reported Log P of CCOC(=O)C(C#N)=C(NC1CC1(C)C)c1cn(C)nc1C(F)F (stereo not shown) [Compound 1148]
Solution: 3^[a]

Exercise: Form field: reported Log P of CCOC(=O)C(C#N)=C(NC(C)c1cccc2ccccc12)c1cnc(Cl)cc1Cl (stereo not shown) [Compound 3]
Solution: 4.4^[a]

Exercise: Form field: reported Log P of CCOC(=O)C(C#N)=C(NC(C)Cn1cccn1)c1cccnc1Cl (racemic) [Compound 278]
Solution: 2.23^[a]

Exercise: Form field: reported Log P of CCC1CCCCC1NC(=C(C#N)C(=O)OC)c1cccnc1Cl (stereo not shown) [Compound 1061]
Solution: 3.63^[a]

Exercise: Form field: reported Log P of CCOC(=O)C(C#N)=C(Nc1ccccc1OC(C)C)c1sccc1C(F)(F)F [Compound 460]
Solution: 4.54^[a]
